experiment: chemical genetic growth profiling, strain panel (AID 1159580);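 further: tested at 20 µM; growth read once vehicle control cultures reached saturation at 30 °C; 1 = growth at the plate median or of vehicle wells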; conditions: S. cerevisiae deletion strains, growth OD, locus YGL227W, strain vid30, stronger effect = lower value
Screen size: about 5,500 compounds; about 2,000 (36%) were called active. Inconclusive results (about 18%) are left out. This is one part of the list.
REPORTED PROPERTY: normalized growth
Response field accepts a number only; no unit should be typed.

Below, 2 compounds whose answers are already recorded.
COMPOUND	RECORDED RESULT
CC(=O)O[C@H]1C[C@@H](OC(C)=O)C(C)(C)C2CC(=O)[C@]3(C)C(CC[C@@]4(C)[C@H](C(=O)O)OC(=O)C5OC543)[C@]21C (stereo partly specified)	0.993
CN1C2C[C@H](OC(=O)[C@H](CO)c3ccccc3)C[C@H]1[C@@H](O)C2	1.02

[ask] Name the reported normalized growth value associated with the compound COc1ccc(C(=O)CC(=O)O)c2c1C=CC(C)(C)O2
[reply] 0.981

----------
experiment: chemical genetic growth profiling, strain panel (AID 1159580);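 further: tested at 20 µM; growth read once vehicle control cultures reached saturation at 30 °C; 1 = growth at the plate median or of vehicle wells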; conditions: S. cerevisiae deletion strains, growth OD, locus YJR066W, strain TOR1 (second series), stronger effect = lower value
The whole screen tested about 5,500 compounds, of which about 2,000 (36%) were called active. Roughly 18% stayed inconclusive and do not appear here. The list shows a part of the results.
Quick rule for you: normalized growth under 0.9 gets Satisfied, anything else gets Not satisfied.

[ask] Just wondering, is normalized growth of CC(C)(C)c1ccc(C(=N)SC(C(=O)C(F)(F)F)c2ccccc2)cc1 (stereo not given) below 0.9?
[reply] Not satisfied

[ask] Hi there! Is normalized growth for O=C(ON=C1CCCCC1)c1ccc([N+](=O)[O-])cc1 below 0.9, do you know?
[reply] Satisfied

[ask] Consider the compound Cc1ccc(Nc2ccnc3cc(Cl)ccc23)cc1F . Is its normalized growth strictly less than 0.9?
[reply] Not satisfied

[ask] Is the reported normalized growth for Cc1ccc(S(=O)(=O)NC(=O)Nc2ccc(Sc3ccccc3)nc2Sc2ccccc2)cc1 strictly below 0.9?
[reply] Not satisfied

[ask] Regarding O=[N+]([O-])c1ccc(ON=C2CCCCC2)c([N+](=O)[O-])c1 , kindly confirm whether its normalized growth is beneath 0.9.
[reply] Satisfied

[ask] # check: normalized growth < 0.9 for N/C(CCSc1ccc(Cl)cc1)=N/OC(=O)Nc1ccc(Cl)cc1
[reply] Satisfied

[ask] Quick check: normalized growth of COc1cc(Cl)ccc1N/N=C(/C#N)C(N)=O under 0.9?
[reply] Satisfied

----------
experiment: chemical genetic growth profiling, strain panel (AID 1159580);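 further: tested at 20 µM; growth read once vehicle control cultures reached saturation at 30 °C; 1 = growth at the plate median or of vehicle wells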; conditions: S. cerevisiae deletion strains, growth OD, locus YCL069W, strain vba3, stronger effect = lower value
The campaign covered roughly 5,500 compounds. About 2,000 (36%) were called active. Roughly 18% stayed inconclusive and do not appear here. The list shows a part of the results.
Reported normalized growth by item:
The answer should be written as a number, with no unit following it.

MOLECULE	normalized growth
O=c1cccc2ccc(O)c(O)c2c1O	0.945
CN(C)CCN(Cc1ccccc1)c1ccccn1	1.01

Now turn to the next molecule.
[ask] Return reported normalized growth; argument: O=C(c1ccc(OCCN2CCCCC2)cc1)c1c(-c2ccc(O)cc2)sc2cc(O)ccc12
[reply] 1.03

----------
assay: chemical genetic growth profiling, strain panel (AID 1159580);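 further: tested at 20 µM; growth read once vehicle control cultures reached saturation at 30 °C; 1 = growth at the plate median or of vehicle wells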; conditions: S. cerevisiae deletion strains, growth OD, locus YKR091W, strain srl3, stronger effect = lower value
Screen size: about 5,500 compounds; about 2,000 (36%) were called active. About 18% were inconclusive and are not listed. This is one part of the list.
Measured normalized growth by item
Give the figure by itself; no unit, no explanation.

COMPOUND	REPORTED PROPERTY	RECORDED RESULT
COC(=O)C1=COC(OC2OC(CO)C(O)C(O)C2O)C2C(C)CC(=O)C12 (stereo not drawn)	normalized growth	1.02

[ask] Query: normalized growth; subject: CC[C@@]1(O)C[C@H](O[C@H]2C[C@H](N(C)C)[C@H](O)[C@H](C)O2)c2c(cc3c(c2O)C(=O)c2c(O)cccc2C3=O)[C@H]1C(=O)OC
[reply] 0.945

[ask] Suppose we examine the compound CCC[C@H](N[C@@H](C)C(=O)N1[C@H](C(=O)O)C[C@@H]2CCCC[C@@H]21)C(=O)OCC ; what normalized growth value has been reported?
[reply] 1.02

[ask] Returns the measured normalized growth for the input compound. Input: NCCc1cnc[nH]1
[reply] 1.02

[ask] I'd like to know its normalized growth. The compound in question is N[C@@H](Cc1ccc(N(CCCl)CCCl)cc1)C(=O)O
[reply] 0.975

[ask] Query (compound): CC(C)NCC(O)COc1cccc2[nH]ccc12 (stereo not drawn) ; field requested: normalized growth
[reply] 0.992

Each recorded value in this set is attributed to PubChem BioAssay AID1159580.
